molecular target: Lambda DNA; assay: Ethidium bromide displacement assay, Lambda DNA; conditions: 50% reduction of ethidium bromide fluorescence, pH 7.0, read-out: FI50 (the source's name)
Entries and their measured IC50 follow.
Note: unit nM is implicit; provide only the numeric part.

O=C1c2cccc3cc([N+](=O)[O-])cc(c23)C(=O)N1CCNCCNCCN1C(=O)c2cccc3cc([N+](=O)[O-])cc(c23)C1=O | 53

Turning to the following compound.
Q. // query IC50 value for entry O=C1c2cccc3cc([N+](=O)[O-])cc(c23)C(=O)N1CCNCCOCCN1C(=O)c2cccc3cc([N+](=O)[O-])cc(c23)C1=O
A. 241
